- TESTED SYSTEM: T1, human TL1A extracellular domain with N-terminal HIS and FLAG tag (human) (UniProt O95150)
- T1 sequence: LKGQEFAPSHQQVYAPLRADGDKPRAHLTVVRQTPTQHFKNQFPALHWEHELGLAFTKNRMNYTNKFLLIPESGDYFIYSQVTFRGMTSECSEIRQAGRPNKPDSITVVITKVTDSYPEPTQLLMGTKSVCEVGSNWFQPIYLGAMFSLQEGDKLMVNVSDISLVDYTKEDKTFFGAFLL
- PROTOCOL DESCRIPTION: cell-based or functional assay
ENDPOINT NAME: Antibody IC50, TL1A induced caspase potency assay in TF-1 cells (µg/mL)
Quick reminder: number only, in µg/mL, skip the unit.

Example cases with answers are listed next.
binder="320-345 (antibody, human IgG1, name in Kabat numbering, V domains shown, human IgG1, lambda) VH: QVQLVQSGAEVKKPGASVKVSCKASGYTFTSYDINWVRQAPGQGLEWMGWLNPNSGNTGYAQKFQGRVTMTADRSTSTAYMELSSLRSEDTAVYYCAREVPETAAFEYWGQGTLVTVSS VL: QSVLTQPPSVSGAPGQRVTISCTSSSSDIGAGLGVHWYQQLPGTAPKLLIEGYYNRPSGVPDRFSGSKSGTSASLTITGLLPEDEGDYYCQSYDKTLSALFGGGTKLTVLG" reported=0.02
binder="320-219 (antibody, human IgG1, name in Kabat numbering, V domains shown, human IgG1, lambda) VH: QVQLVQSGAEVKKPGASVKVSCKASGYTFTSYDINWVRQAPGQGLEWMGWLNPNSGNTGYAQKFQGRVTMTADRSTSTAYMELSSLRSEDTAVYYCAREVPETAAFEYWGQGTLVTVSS VL: QSVLTQPPSVSGAPGQRVTISCTSSDSDIGAGLGVHWYQQLPGTAPKLLIEGYYNRPSGVPDRFSGSKSGTSASLTITGLLPEDEGDYYCQSYDGTLSALFGGGTKLTVLG" reported=0.02
binder="320-226 (antibody, human IgG1, name in Kabat numbering, V domains shown, human IgG1, lambda) VH: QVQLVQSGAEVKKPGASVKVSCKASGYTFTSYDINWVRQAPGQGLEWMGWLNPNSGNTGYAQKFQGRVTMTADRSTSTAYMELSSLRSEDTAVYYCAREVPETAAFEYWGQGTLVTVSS VL: QSVLTQPPSVSGAPGQRVTISCTSSSQDIGAGLGVHWYQQLPGTAPKLLIEGYYNRPSGVPDRFSGSKSGTSASLTITGLLPEDEGDYYCQSYDGTLSALFGGGTKLTVLG" reported=0.03
binder="320-318 (antibody, human IgG1, name in Kabat numbering, V domains shown, human IgG1, lambda) VH: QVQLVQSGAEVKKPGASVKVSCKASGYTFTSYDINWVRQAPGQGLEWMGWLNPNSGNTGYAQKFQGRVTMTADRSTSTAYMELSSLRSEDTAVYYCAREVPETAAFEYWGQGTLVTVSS VL: QSVLTQPPSVSGAPGQRVTISCTSSSSDIGAGLGVHWYQQLPGTAPKLLIEGYYNRPSGVPDRFSGSKSGTSASLTITGLLPEDEGDYYCQAYDGTLSALFGGGTKLTVLG" reported=0.02

From here, focus on the item given below.
## Task Look up Antibody IC50, TL1A induced caspase potency assay in TF-1 cells for this binder: 320-190 (antibody, human IgG1, name in Kabat numbering, V domains shown, human IgG1, lambda) VH: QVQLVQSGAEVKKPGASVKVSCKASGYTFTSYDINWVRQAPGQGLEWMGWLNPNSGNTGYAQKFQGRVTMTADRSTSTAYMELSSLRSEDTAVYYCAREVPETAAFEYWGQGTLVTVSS VL: QSVLTQPPSVSGAPGQRVTISCTSSSSDIGAGLGVHWYQQLPGTAPKLLIEGYYNRPSGVPDRFSGSKSGTSASLTITGLWPEDEGDYYCQSYDGTLSALFGGGTKLTVLG
## Result 0.02

src = patent US20170081400A1
